# method.summary: mn = molality of the nth substance listed, in mol/kg
# condition.set: 318.15 K; 100 kPa; Liquid; Vibrating tube method; m2 = 0
For each record, write down the corresponding mass density.
Numbers only, in kg/m3.

Example entries begin here.
Task: Sample CC(=O)N(C)C [N,N-dimethylethanamide] + O=S(=O)([O-])C(F)(F)F.O=S(=O)([O-])C(F)(F)F.[Ca+2] — what was its mass density?
Output: 917.793

Task: Again, but for CN(C)C=O [dimethylformamide] + O=S(=O)([O-])C(F)(F)F.O=S(=O)([O-])C(F)(F)F.[Sr+2]
Output: 924.748

Task: Now give it for CN(C)C=O [dimethylformamide] + [Ba+2].[O-][Cl+3]([O-])([O-])[O-].[O-][Cl+3]([O-])([O-])[O-] too.
Output: 924.748

Task: For CN(C)C=O [dimethylformamide] + O=S(=O)([O-])C(F)(F)F.O=S(=O)([O-])C(F)(F)F.[Ca+2] then?
Output: 924.746

Task: Param item: CC(=O)N(C)C [N,N-dimethylethanamide] + [Ba+2].[O-][Cl+3]([O-])([O-])[O-].[O-][Cl+3]([O-])([O-])[O-]
Output: 917.79

Task: And the next one, CC(=O)N(C)C [N,N-dimethylethanamide] + O=S(=O)([O-])C(F)(F)F.O=S(=O)([O-])C(F)(F)F.[Mg+2] ?
Output: 917.78

Task: Another: CC(=O)N(C)C [N,N-dimethylethanamide] + O=S(=O)([O-])C(F)(F)F.O=S(=O)([O-])C(F)(F)F.[Sr+2]
Output: 917.79

---
Task: Entry CN(C)C=O [dimethylformamide] + O=S(=O)([O-])C(F)(F)F.O=S(=O)([O-])C(F)(F)F.[Mg+2] : reported mass density = ?
Output: 924.732
